Assignment: determine reported %Inh for the given compounds.
# System: PRKD2
# studyConditions: concentration: 1 μM, replicates: in singlicate; n = 1
Reply with the number and its unit after it.

q: Give recorded %Inh. O=C(Nc1n[nH]c2nc(-c3nccs3)c(Br)cc12)C1CC1 [SB-742251]
a: 0%

q: Given the compound Cc1ccc(NC(=O)Nc2cc(C(C)(C)C)nn2-c2ccccc2)cc1 [GSK1014915] , write its reported %Inh.
a: 0%

q: Quote %Inh reported for O=C(O)COc1ncnc2cc(-c3ccc4[nH]ncc4c3)sc12 please.
a: 0%

q: Specify %Inh for Cc1c(Cn2ccn3c(=O)cc(N4CCOCC4)nc23)cccc1C(F)(F)F [GSK2289044] and stop.
a: 19%

q: Provide one value: measured %Inh of CN1C(=O)C(Nc2ccc(Cl)c(C(=O)O)c2)=C(c2ccc(Cl)cc2)C1=O [SB-404290]
a: 6%

q: Look up and state reported %Inh for O=C(Nc1ccccc1)Nc1cccc(Oc2ccc3nccn3n2)c1
a: 7%

q: Retrieve %Inh measured for COc1ccc(C2=C(Nc3cccc(C(=O)O)c3)C(=O)NC2=O)cc1 [SB-390765] and print it.
a: 0%

q: Complete the entry with %Inh for COc1cc(Nc2nccc(N3CCC(NC(=O)Nc4cc(C)ccc4C)C3)n2)cc(OC)c1OC (stereo not shown) [GSK1379762]
a: 0%

q: Please list %Inh recorded for the compound C[C@@H]1CCCCN1c1cc(-c2ccc3c(N)n[nH]c3c2)nc(N)n1 [GSK2258759]
a: 3%

q: Respond only with %Inh recorded for COc1ccc(Nc2nccc(NCCNC(=O)Nc3ccccc3F)n2)cc1 [GSK1379901]
a: 83%

q: Item CCn1c(-c2ccccn2)nc2cnccc21 [SB-736398] : provide %Inh
a: 0%

q: Dear colleague, please send me the reported %Inh for Cn1ccc2ncnc(Oc3ccc(NC(=O)Nc4ccccc4)cc3)c21 when you can.
a: 2%

q: For the compound COc1ccc2nc(-c3cccc(C)n3)nc(Nc3ccncc3)c2c1 [GSK204919] , give its measured %Inh value.
a: 98.8%

q: Please supply the value of reported %Inh for the item Cn1cncc1-c1ccc2ncnc(Nc3ccc(OCc4ccccc4)cc3)c2c1 [GW320571]
a: 5%

q: For the compound Fc1cccc(COc2nnc(-c3ccc4c(c3)CCO4)o2)c1 , give its reported %Inh.
a: 1%

q: Supply %Inh value. Item: CS(=O)(=O)c1ccc(-c2nc3n(c2-c2ccncc2)CCC3)cc1 [SKF-105942]
a: 0%

q: Let me know recorded %Inh for COc1ccccc1-c1ccc2c(NC(=O)C3CC3)n[nH]c2n1 [SB-711239] , thanks.
a: 11%

q: Report %Inh, nothing else, for this compound: CC(C)(C)c1ccc(C(=O)Nc2cn3cc(-c4cccnc4)ccc3n2)cc1
a: 14%

q: Supply recorded %Inh for Cc1nnc(-c2ccc3occ(-c4ccc(S(C)=O)cc4)c3c2)[nH]1 (stereo not shown) here.
a: 4%

###

What %Inh was measured for each of the following?
# System: RIPK5
# studyConditions: concentration: 1 μM, replicates: in singlicate; n = 1
Give the number first and the unit second.

q: Determine from records and report %Inh for Cn1cncc1-c1ccc2ncnc(Nc3ccc(OCc4ccccc4)cc3)c2c1 [GW320571]
a: 0%

q: Provide %Inh value for the following molecule: CS(=O)(=O)c1ccc(-c2c(-c3ncn[nH]3)sc(N3CCOCC3)c2C#N)cc1
a: 18%

q: Item CC1=C(C(=O)Nc2cc3cn[nH]c3cc2F)C(c2ccc(C(F)(F)F)cc2)CC(=O)N1 (stereo not drawn) [GSK429286] : provide %Inh
a: 1%

q: Provide one value: measured %Inh of O=C(Nc1n[nH]c2cc(-c3cccc(F)c3F)ccc12)C1CC1 [SB-733894]
a: 31%

q: Note %Inh for the molecule shown: COc1cc(Nc2nccc(N3CCC(NC(=O)Nc4cc(C)ccc4C)C3)n2)cc(OC)c1OC (stereo not drawn) [GSK1379762]
a: 0%

q: Consider the molecule Cn1ccc2ncnc(Oc3ccc(NC(=O)Nc4ccccc4)cc3)c21 and give its recorded %Inh.
a: 0%

q: Determine from records and report %Inh for Cc1ccc(NC(=O)Nc2cccc(Cl)c2)cc1-c1ccc(C(=O)Nc2ccncc2)cc1 [GSK1398468]
a: 0%

q: Output measured %Inh for this item: Cc1cccc(-c2nc(Nc3ccncc3)c3ccccc3n2)n1 [GW855857]
a: 0%

q: Identify measured %Inh corresponding to Clc1cc(Cl)cc(Nc2ccnc(Nc3cc(Cl)cc(Cl)c3)n2)c1 [GSK175726]
a: 6%

###

Please go through the items and note down their %Inh.
# System: CDKL2
# studyConditions: concentration: 1 μM, replicates: in singlicate; n = 1
Write the answer as a number in %, unit excluded.

q: Query %Inh for COc1cc2nccc(Nc3ccc(NC(=O)c4ccc(C)cc4)c(O)c3)c2cc1OC.Cl
a: 13

q: Could you please provide reported %Inh for O=C(Nc1ccc2c(c1)OCO2)NC1CCN(c2ccnc(Nc3ccc(F)cc3)n2)C1 (stereo not drawn) ? Thanks!
a: 49

q: Provide measured %Inh value, entry: Cn1cncc1-c1ccc2ncnc(Nc3ccc(OCc4ccccc4)cc3)c2c1
a: 19

q: Tell me measured %Inh for COc1cc2ncnc(Nc3ccc4nc(-c5ccccc5)[nH]c4c3)c2cc1OC.Cl please.
a: 7

q: Look up and report measured %Inh for this entry: Nc1nc(-c2nccs2)c(-c2ccnc3ccccc23)s1
a: 26

q: Note %Inh for the molecule shown: O=S(=O)(c1ccc(-c2ccnc3[nH]ccc23)cc1)N1CCCC1
a: 5

q: Determine from records and report %Inh for Cl.NC(=O)c1cccc(Nc2nccc(Nc3ccc(Oc4cccc(Cl)c4)c(Cl)c3)n2)c1
a: 23

q: Query %Inh for COc1cccc(NC(=O)NC2CCN(c3ccnc(Nc4ccc(F)cc4)n3)C2)c1 (stereo not drawn)
a: 61

q: Note %Inh for the molecule shown: O=C(Nc1n[nH]c2nc(-c3nccs3)c(Br)cc12)C1CCCC1
a: 88

###

# Tested on: SRMS;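 further: kd values determined as follow-up on hits from a single-replicate KINOMEscan panel screen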
endpointLabel: Kd

q: Consider the compound O=C1NC(=O)C(N2CCc3ccccc32)=C1c1ccccc1Cl . State its measured Kd.
a: > 10 µM

###

# Tested on: ERBB2
# studyConditions: concentration: 1 μM, replicates: in singlicate; n = 1
endpointLabel: %Inh
Respond with a number, then the unit of measure.

q: Read the entry Cl.NC(=O)c1cccc(Nc2nccc(Nc3ccc(Oc4cccc(Cl)c4)c(Cl)c3)n2)c1 and write its reported %Inh.
a: 79%

q: Supply reported %Inh belonging to this molecule: CN1C(=O)C(Nc2ccc(Cl)c(C(=O)O)c2)=C(c2ccc(Cl)cc2)C1=O
a: 0%

q: Give %Inh for the following molecule: Cc1cccc(-c2nc(-c3ccc(S(C)(=O)=O)cc3)sc2-c2ccnc(NCCc3ccccc3)c2)c1
a: 0%

q: Could you please provide reported %Inh for O=C(Nc1n[nH]c2cc(-c3cccc(F)c3F)ccc12)C1CC1 ? Thanks!
a: 0%

###

Assign %Inh to each entry below.
# Test system: TYK2(JH1domain-catalytic)
# studyConditions: concentration: 1 μM, replicates: in singlicate; n = 1
Answers without a unit are incomplete; give the number and then its unit.

q: Name the value of %Inh reported for O=C(Nc1ccccc1)Nc1cccc(Oc2ccc3nccn3n2)c1 when tested on TYK2(JH1domain-catalytic).
a: 14%

q: Give %Inh for Fc1cc(Cl)ccc1Nc1ccnc2cc(I)ccc12 tested on TYK2(JH1domain-catalytic).
a: 13%

q: Provide %Inh, system TYK2(JH1domain-catalytic), entry Clc1cc(Cl)cc(Nc2ccnc(Nc3cc(Cl)cc(Cl)c3)n2)c1
a: 0%

q: # lookup: TYK2(JH1domain-catalytic) %Inh, key = COc1ccc(C2=C(Nc3cccc(C(=O)O)c3)C(=O)NC2=O)cc1
a: 0%

q: Enter recorded %Inh with TYK2(JH1domain-catalytic) for COc1ccccc1CNC(=O)c1cc(C(=O)c2ccccc2C)c[nH]1 here.
a: 5%

q: With TYK2(JH1domain-catalytic) as the test system, provide measured %Inh for this molecule: Cc1ccc(NC(=O)Nc2cc(C(C)(C)C)nn2-c2ccccc2)cc1
a: 25%

q: Give TYK2(JH1domain-catalytic) %Inh for the following molecule: Cc1cccc(-c2cc(Nc3ccncc3)c3ccccc3n2)n1
a: 0%

q: Please look at Cc1ccc(C(=O)Nc2ccc(Nc3ccnc4cc(-c5ccccn5)ccc34)cc2O)cc1.Cl and tell me its recorded %Inh on TYK2(JH1domain-catalytic).
a: 28%

q: Write down measured %Inh (TYK2(JH1domain-catalytic)) for this molecule. CCn1c(-c2ccccn2)nc2cnccc21
a: 21%

q: Under TYK2(JH1domain-catalytic): report %Inh of Nc1ncnc2[nH]c(-c3ccccc3)nc12 .
a: 38%

q: Param request: %Inh | system TYK2(JH1domain-catalytic) | item CS(=O)(=O)c1ccc(-c2nc3n(c2-c2ccncc2)CCC3)cc1
a: 0%

q: # assay system TYK2(JH1domain-catalytic): give %Inh of Cn1ccc2ncnc(Oc3ccc(NC(=O)Nc4ccccc4)cc3)c21
a: 0%

q: Print TYK2(JH1domain-catalytic) %Inh for CC(C)(C)c1ccc(C(=O)Nc2cn3cc(Cl)ccc3n2)cc1 .
a: 0%

q: Supply %Inh measured with TYK2(JH1domain-catalytic) for COc1cc2ncnc(Nc3ccc4nc(-c5ccccc5)[nH]c4c3)c2cc1OC.Cl .
a: 9%

q: Look up and report %Inh, with TYK2(JH1domain-catalytic) as system, for CC(C)(C)c1ccc(C(=O)Nc2cn3cc(-c4cccnc4)ccc3n2)cc1
a: 0%

q: Tell me %Inh of Cc1ccc(NC(=O)Nc2cccc(Cl)c2)cc1-c1ccc(C(=O)Nc2ccncc2)cc1 when tested on TYK2(JH1domain-catalytic).
a: 0%

q: # assay system TYK2(JH1domain-catalytic): give %Inh of Cn1ccc2ncnc(Oc3ccc(Nc4nc5ccccc5[nH]4)cc3)c21
a: 0%

q: Report %Inh under test system TYK2(JH1domain-catalytic) for COc1ccccc1-c1ccc2c(NC(=O)C3CC3)n[nH]c2n1 .
a: 0%

q: Give TYK2(JH1domain-catalytic) %Inh for the following molecule: COc1cc(Nc2nccc(N3CCC(NC(=O)Nc4cc(C)ccc4C)C3)n2)cc(OC)c1OC (centres unmarked)
a: 39%

q: Report %Inh under test system TYK2(JH1domain-catalytic) for Cl.c1ccc(-c2n[nH]cc2-c2ccnc(-c3ccc(CN4CCOCC4)cc3)c2)nc1 .
a: 0%

q: Report %Inh from TYK2(JH1domain-catalytic) testing of CN1C(=O)C(Nc2ccc(Cl)c(C(=O)O)c2)=C(c2ccc(Cl)cc2)C1=O
a: 0%

q: Fill in: %Inh on TYK2(JH1domain-catalytic), entry C[C@@H]1CCCCN1c1cc(-c2ccc3c(N)n[nH]c3c2)nc(N)n1
a: 0%

q: Write down the reported %Inh (system: TYK2(JH1domain-catalytic)) of Cc1nnc(-c2ccc3occ(-c4ccc(S(C)=O)cc4)c3c2)[nH]1 (centres unmarked)
a: 8%

q: # lookup: TYK2(JH1domain-catalytic) %Inh, key = COc1ccc(Nc2nccc(-c3cccc(NC(=O)c4cc5cc(F)ccc5[nH]4)c3)n2)cc1
a: 41%

q: Using TYK2(JH1domain-catalytic) as the test system, report measured %Inh of Cc1cc(N2Cc3ccccc3C2)nc(Nc2ccc(S(=O)(=O)N3CCOCC3)cc2)n1.Cl .
a: 7%

q: Fetch value of %Inh on TYK2(JH1domain-catalytic) for Cc1ccccc1-n1cnc2c(N)ncnc21 .
a: 0%

q: Look up and report %Inh, with TYK2(JH1domain-catalytic) as system, for Cc1csc(-c2nc(Nc3ccncc3)c3ccccc3n2)n1
a: 100%

q: Recall the reported %Inh of COc1cccc(-c2cc(-c3c[nH]nc3-c3ccccn3)ccn2)c1 on TYK2(JH1domain-catalytic) and write it down.
a: 12%

q: Enter measured %Inh, system TYK2(JH1domain-catalytic), for the molecule shown: NC(=O)c1nnc2ccccc2c1N
a: 44%

q: State %Inh (TYK2(JH1domain-catalytic)) of O=S(=O)(c1ccc(-c2ccnc3[nH]ccc23)cc1)N1CCCC1 .
a: 62%

q: Please tell me the measured %Inh for O=C(Nc1ccc2c(c1)OCO2)NC1CCN(c2ccnc(Nc3ccc(F)cc3)n2)C1 (centres unmarked) ; system: TYK2(JH1domain-catalytic).
a: 9%

q: Please indicate recorded %Inh of COc1cc2nccc(Nc3ccc(NC(=O)c4ccc(C)cc4)c(O)c3)c2cc1OC.Cl measured with TYK2(JH1domain-catalytic).
a: 0%

q: Name the recorded %Inh of Cc1ccc(-c2cc(-c3c[nH]nc3-c3ccccn3)ccn2)cc1 , assay system TYK2(JH1domain-catalytic).
a: 18%

q: State, for TYK2(JH1domain-catalytic), measured %Inh of the molecule listed here: COc1cccc(NC(=O)NC2CCN(c3ccnc(Nc4ccc(F)cc4)n3)C2)c1 (centres unmarked)
a: 26%

q: Enter %Inh (test system TYK2(JH1domain-catalytic)) for Cc1cc(-c2ccc3c(c2)CC[C@@H](N[C@@H](C)c2ccccc2)C3)cnc1N.Cl
a: 24%

q: Report measured %Inh on TYK2(JH1domain-catalytic); entry: COC(=O)c1c(-c2ccccc2)c2cc(C(=O)O)ccc2c(=O)n1Cc1ccccc1
a: 0%

q: State %Inh on TYK2(JH1domain-catalytic). Entry: O=C(Nc1n[nH]c2nc(-c3nccs3)c(Br)cc12)C1CC1
a: 36%

q: Provide the reported %Inh (system: TYK2(JH1domain-catalytic)) for Cc1cccc(-c2nc(Nc3ccc4[nH]ncc4c3)c3ccccc3n2)n1
a: 11%
